Heads up, these compounds all have IC50 values measured for Acetylcholinesterase (Electrophorus electricus).
Give just the numeric value; µM need not be written.

{"columns": ["STRUCTURE NOTATION", "IC50 (µM)"],
 "data": [
  ["COc1ccc2[nH]cc(CCNC(=O)CN(CCCCCCCCNc3c4c(nc5ccccc35)CCCC4)C(=O)CCCC[C@@H]3CCSS3)c2c1", 0.00362],
  ["COc1ccc2nc3c(c(NCCCCCCCN(CC(=O)NCCc4c[nH]c5ccc(OC)cc45)C(=O)CCCC[C@@H]4CCSS4)c2c1)CCCC3", 0.00756],
  ["COc1ccc2nc3c(c(NCCCCCCCCN(CC(=O)NCCc4c[nH]c5ccc(OC)cc45)C(=O)CCCC[C@@H]4CCSS4)c2c1)CCCC3", 0.0148],
  ["COc1ccc2nc3c(c(NCCCCCCCCN(CC(=O)NCCc4c[nH]c5ccc(OC)cc45)C(=O)/C=C/c4ccc(O)c(OC)c4)c2c1)CCCC3", 0.0297],
  ["COc1ccc2nc3c(c(NCCCCCCCN(CC(=O)NCCc4c[nH]c5ccc(OC)cc45)C(=O)/C=C/c4ccc(O)c(OC)c4)c2c1)CCCC3", 0.00837],
  ["COc1ccc2nc3c(c(NCCCCCCN(CC(=O)NCCc4c[nH]c5ccc(OC)cc45)C(=O)/C=C/c4ccc(O)c(OC)c4)c2c1)CCCC3", 0.0178]
]}

Value (IC50, Acetylcholinesterase (Electrophorus electricus)) for record COc1ccc2nc3c(c(NCCCCCCN(CC(=O)NCCc4c[nH]c5ccc(OC)cc45)C(=O)CCCC[C@@H]4CCSS4)c2c1)CCCC3 = 0.016

Noted IC50 for COc1ccc2[nH]cc(CCNC(=O)CN(CCCCCCCCNc3c4c(nc5ccccc35)CCCC4)C(=O)/C=C/c3ccc(O)c(OC)c3)c2c1 , tested on Acetylcholinesterase (Electrophorus electricus): 0.0139
